# assay overview: Stability of NTI164 in oil at room temperature (UPLC, weekly assay, CBDA as marker)
# assay conditions: Week 5 (19 Aug. 2021)
property label: Cannabinoid concentration in NTI164 (sample 28206-7) (mg/mL)
Please respond with the number in mg/mL and leave the unit unwritten.

The cases that follow already have their Cannabinoid concentration in NTI164 (sample 28206-7) on record.
{"columns": ["molecule", "value observed"],
 "data": [
  ["CCCCCc1cc(O)c(C/C=C(\\C)CCC=C(C)C)c(O)c1", 5.30],
  ["CCCCCc1cc(O)c2c(c1)OC(C)(C)[C@@H]1CCC(C)=C[C@@H]21 [Tetrahydrocannabinol (D9-THC), Tetrahydrocannabinol]", 0.14],
  ["CCCCCc1cc(O)c(C/C=C(\\C)CCC=C(C)C)c(O)c1C(=O)O", 1.08],
  ["C=C(C)[C@@H]1CCC(C)=C[C@H]1c1c(O)cc(CCCCC)c(C(=O)O)c1O", 48.35]
]}

Proceeding to the next molecule to report its Cannabinoid concentration in NTI164 (sample 28206-7).
Identify measured Cannabinoid concentration in NTI164 (sample 28206-7) corresponding to CCCCCc1cc2c(c(O)c1C(=O)O)[C@@H]1C=C(C)CC[C@H]1C(C)(C)O2 [(Tetrahydrocannabinolic acid) (D9-THCA), Tetrahydrocannabinolic acid]
0.79

====

Below, each entry is listed alongside its reported Cannabinoid concentration in NTI164 (sample 28206-7).
# assay overview: Stability of NTI164 in oil at room temperature (UPLC, weekly assay, CBDA as marker)
# assay conditions: Day 7 (20 Jul. 2021)
Please respond with the number in mg/mL and leave the unit unwritten.

The cases that follow already have their Cannabinoid concentration in NTI164 (sample 28206-7) on record.
{"columns": ["compound", "unit string", "value observed"],
 "data": [
  ["CCCCCc1cc(O)c(C/C=C(\\C)CCC=C(C)C)c(O)c1", "mg/mL", 5.14],
  ["C=C(C)[C@@H]1CCC(C)=C[C@H]1c1c(O)cc(CCCCC)cc1O [CBD, Cannabidiol, reference compound]", "mg/mL", 0.53]
]}

Identify measured Cannabinoid concentration in NTI164 (sample 28206-7) corresponding to C=C(C)[C@@H]1CCC(C)=C[C@H]1c1c(O)cc(CCCCC)c(C(=O)O)c1O
48.62

====

# assay overview: Stability of NTI164 in oil at room temperature (UPLC, weekly assay, CBDA as marker)
# assay conditions: Day 2 (15 Jul. 2021)
property label: Cannabinoid concentration in NTI164 (sample 28206-7)

The cases that follow already have their Cannabinoid concentration in NTI164 (sample 28206-7) on record.
{"columns": ["molecule", "value observed"],
 "data": [
  ["CCCCCc1cc(O)c(C/C=C(\\C)CCC=C(C)C)c(O)c1C(=O)O", "1.18 mg/mL"],
  ["CCCCCc1cc2c(c(O)c1C(=O)O)[C@@H]1C=C(C)CC[C@H]1C(C)(C)O2 [(Tetrahydrocannabinolic acid) (D9-THCA), Tetrahydrocannabinolic acid]", "0.72 mg/mL"],
  ["CCCCCc1cc(O)c2c(c1)OC(C)(C)[C@@H]1CCC(C)=C[C@@H]21 [Tetrahydrocannabinol (D9-THC), Tetrahydrocannabinol]", "<0.1 mg/mL"]
]}

Proceeding to the next molecule to report its Cannabinoid concentration in NTI164 (sample 28206-7).
Identify measured Cannabinoid concentration in NTI164 (sample 28206-7) corresponding to CCCCCc1cc(O)c(C/C=C(\C)CCC=C(C)C)c(O)c1
5.23 mg/mL

Cited source for all entries: patent US20260077009A1
